Where do these numbers come from? They come from patent US7544694B2.

Molecular target: NK2 (Homo sapiens, UniProt P21452)
Assay: Signal transduction (ST), intracellular Ca++ (FLIPR), NK2
Type: cell-based
Details: antagonist, read-out: NK2 pIC50 (converted)
Procedure: [The source words this procedure for another target and reports this target under the same test.] This test evaluates in vitro functional NK1 antagonistic activity. For the measurements of intracellular Ca^++ concentrations the cells were grown on 96-well (black wall/transparent bottom) plates from Costar for 2 days until they reached confluence. […] The cells were preincubated with a concentration range of antagonists for 20 min at RT and Ca^++-signals after addition of the agonists were measured in a Fluorescence Image Plate Reader (FLIPR from Molecular Devices, Crawley, England). […]
Experimental Endpoint: IC50

>>> reported_result("CN1CCC=C(C(=O)N2CCC3(CC2)CCN([C@H]2CCN(C(=O)c4cc(C(F)(F)F)cc(C(F)(F)F)c4)[C@H](Cc4ccccc4)C2)CC3)C1")
"> 10 µM"
>>> reported_result("Cc1cccc(S(=O)(=O)N2CCC3(CCN([C@H]4CCN(C(=O)c5cc(C(F)(F)F)cc(C(F)(F)F)c5)[C@H](Cc5ccccc5)C4)CC3)CC2)c1")
"~4.57 µM"
>>> reported_result("CC(C)(C)C(=O)N1CCC2(CC1)CCN([C@H]1CCN(C(=O)c3cc(C(F)(F)F)cc(C(F)(F)F)c3)[C@H](Cc3ccccc3)C1)CC2")
"> 10 µM"

If you can, please state the reported IC50 value of CC(C)(C)C1CCC(C(=O)N2CCC3(CC2)CCN([C@H]2CCN(C(=O)c4cc(C(F)(F)F)cc(C(F)(F)F)c4)[C@H](Cc4ccccc4)C2)CC3)CC1 (stereo partly shown) .
> 10 µM

---

Target: NK2 (Homo sapiens)
Sequence (P21452 1-398): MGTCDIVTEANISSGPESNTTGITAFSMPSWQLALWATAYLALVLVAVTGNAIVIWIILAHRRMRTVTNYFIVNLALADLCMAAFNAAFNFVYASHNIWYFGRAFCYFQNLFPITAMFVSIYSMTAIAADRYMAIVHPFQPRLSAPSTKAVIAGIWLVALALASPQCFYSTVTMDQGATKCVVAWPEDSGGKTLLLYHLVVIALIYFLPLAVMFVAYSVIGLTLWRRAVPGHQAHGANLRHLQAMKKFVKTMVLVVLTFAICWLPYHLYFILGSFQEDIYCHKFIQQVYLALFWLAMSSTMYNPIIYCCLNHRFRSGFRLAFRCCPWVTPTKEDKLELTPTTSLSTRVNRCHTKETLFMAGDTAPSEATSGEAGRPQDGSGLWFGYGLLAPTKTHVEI
Assay: Signal transduction (ST), intracellular Ca++ (FLIPR), NK2
Format: cell-based
Conditions: antagonist, read-out: NK2 pIC50 (converted)
Experimental Endpoint: IC50

// solved cases for IC50 follow
>>> reported_result("NC(=O)C1(C(=O)N2CCC3(CC2)CCN([C@H]2CCN(C(=O)c4cc(C(F)(F)F)cc(C(F)(F)F)c4)[C@H](Cc4ccccc4)C2)CC3)CC1")
"> 10 µM"
>>> reported_result("O=C(C1CC1)N1CCC2(CCN(C[C@H]3CCN(C(=O)c4cc(C(F)(F)F)cc(C(F)(F)F)c4)[C@H](Cc4ccccc4)C3)CC2)CC1")
"> 10 µM"

// next entry
Query IC50 on NK2 (Homo sapiens) for Cc1cc(C)cc(C(=O)N2CCC(N3CCC4(CCN(C(=O)C5CC5)CC4)CC3)CC2Cc2ccccc2)c1 (stereo not drawn)
> 10 µM
